Each entry below lists one item and its recorded koff value.
- target-or-system: T1, mature human TGF-β1 (human, UniProt P01137 279-390)
- T1 construct: Bought protein (R&D Systems, Cat # 240-B/CF); also called TGF Beta 1; TGF-b1
- T1 sequence (P01137 279-390 limits assumed): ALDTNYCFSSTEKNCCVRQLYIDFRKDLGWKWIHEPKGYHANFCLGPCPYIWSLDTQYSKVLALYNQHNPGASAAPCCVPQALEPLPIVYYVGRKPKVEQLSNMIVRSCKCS
- measurement-protocol: KinExA 3000, calculated from Kd and kon
Note: unit s⁻¹ is implicit; provide only the numeric part.

Before answering, review these 3 worked examples.
Fab 12.4 (Fab, V domains shown, The mAb was made by linking the Fab to an IgG4 Fc region, so the mAb's chains are named; The heavy chain entry also holds the Fc, which is not in the Fab) VH: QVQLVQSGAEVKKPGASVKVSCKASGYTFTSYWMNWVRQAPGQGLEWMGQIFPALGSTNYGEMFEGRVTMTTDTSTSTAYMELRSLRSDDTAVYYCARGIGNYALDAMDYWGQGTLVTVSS VL: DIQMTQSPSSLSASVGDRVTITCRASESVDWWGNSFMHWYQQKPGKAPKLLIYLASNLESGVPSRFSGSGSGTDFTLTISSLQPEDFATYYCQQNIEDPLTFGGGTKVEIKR : 5.2e-05
Fab 12.7 (Fab, V domains shown, The mAb was made by linking the Fab to an IgG4 Fc region, so the mAb's chains are named; The heavy chain entry also holds the Fc, which is not in the Fab) VH: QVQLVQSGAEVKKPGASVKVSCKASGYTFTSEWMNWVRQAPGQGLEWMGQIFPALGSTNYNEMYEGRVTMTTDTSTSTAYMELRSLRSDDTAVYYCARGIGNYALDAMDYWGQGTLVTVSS VL: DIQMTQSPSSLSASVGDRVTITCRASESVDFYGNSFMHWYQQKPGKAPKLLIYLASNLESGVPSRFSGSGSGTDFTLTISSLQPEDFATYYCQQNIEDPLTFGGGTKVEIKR : 3.4e-07
Fab 12.8 (Fab, V domains shown, The mAb was made by linking the Fab to an IgG4 Fc region, so the mAb's chains are named; The heavy chain entry also holds the Fc, which is not in the Fab) VH: QVQLVQSGAEVKKPGASVKVSCKASGYTFTSYWMNWVRQAPGQGLEWMGQIFPALGSTNYNEMFEGRVTMTTDTSTSTAYMELRSLRSDDTAVYYCARGIGNYALDAMDYWGQGTLVTVSS VL: DIQMTQSPSSLSASVGDRVTITCRASESVDWYGNSFMHWYQQKPGKAPKLLIYYASNLESGVPSRFSGSGSGTDFTLTISSLQPEDFATYYCQQNAEDPLTFGGGTKVEIKR : 5.5e-06

Then this binder:
Provide koff value for the following binder: Fab 3.A (Fab, V domains shown, The mAb was made by linking the Fab to an IgG4 Fc region, so the mAb's chains are named; The heavy chain entry also holds the Fc, which is not in the Fab) VH: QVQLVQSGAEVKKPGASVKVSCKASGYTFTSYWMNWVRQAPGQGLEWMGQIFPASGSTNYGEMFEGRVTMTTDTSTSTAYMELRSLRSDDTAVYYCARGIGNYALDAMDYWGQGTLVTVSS VL: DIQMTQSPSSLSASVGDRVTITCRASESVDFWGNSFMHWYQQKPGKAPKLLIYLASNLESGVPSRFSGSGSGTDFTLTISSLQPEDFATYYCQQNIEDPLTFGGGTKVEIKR
0.00031
